target system: human 5-HT1A receptor (Homo sapiens (Human))
Sequence (P08908 whole entry): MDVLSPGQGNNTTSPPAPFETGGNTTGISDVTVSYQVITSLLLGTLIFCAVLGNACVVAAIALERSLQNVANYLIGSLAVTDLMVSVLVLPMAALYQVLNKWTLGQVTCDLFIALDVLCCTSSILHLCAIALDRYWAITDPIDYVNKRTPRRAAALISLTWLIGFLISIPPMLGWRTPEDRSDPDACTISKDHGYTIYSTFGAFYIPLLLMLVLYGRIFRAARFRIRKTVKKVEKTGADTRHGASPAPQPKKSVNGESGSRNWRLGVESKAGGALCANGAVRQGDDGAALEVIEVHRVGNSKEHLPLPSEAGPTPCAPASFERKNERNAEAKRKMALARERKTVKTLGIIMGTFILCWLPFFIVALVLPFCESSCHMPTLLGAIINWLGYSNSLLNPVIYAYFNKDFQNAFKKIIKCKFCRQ
pKi: −log10 of the molar value.
Listed compounds paired with reported pKi
measured parameter: pKi

• Cc1noc2c1C(=O)N(CCN1CCN(c3noc4ccccc34)CC1)CCC2 [Example 38] = 7.87
• CC1CC(CCN2CCC(c3noc4ccccc34)CC2)C(=O)c2ccn(C)c21 (stereo not shown) [Example 82] = 9.21
• O=c1c2ncccc2ccn1CCN1CCN(c2nsc3cc(F)ccc23)CC1 [Example 12] = 8.15
• Cc1nc2c(o1)CCN(CCN1CCN(c3noc4ccccc34)CC1)C2=O [Example 39] = 9.08

###

target system: human D2 receptor (Homo sapiens (Human), UniProt P14416)
Sequence (P14416 whole entry): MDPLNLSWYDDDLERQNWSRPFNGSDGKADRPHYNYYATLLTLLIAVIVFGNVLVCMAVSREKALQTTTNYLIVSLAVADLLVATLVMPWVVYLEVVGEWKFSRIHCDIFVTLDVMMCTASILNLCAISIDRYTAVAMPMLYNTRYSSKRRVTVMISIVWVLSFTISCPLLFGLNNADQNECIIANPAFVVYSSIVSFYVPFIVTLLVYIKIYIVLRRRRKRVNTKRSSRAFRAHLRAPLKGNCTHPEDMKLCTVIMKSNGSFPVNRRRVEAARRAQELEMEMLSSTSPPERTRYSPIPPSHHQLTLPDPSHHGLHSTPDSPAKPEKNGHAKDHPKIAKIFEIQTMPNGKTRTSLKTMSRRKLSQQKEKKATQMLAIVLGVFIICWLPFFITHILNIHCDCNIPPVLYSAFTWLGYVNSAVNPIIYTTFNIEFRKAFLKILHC
experimental protocol: Test 1: binding activity for human D2 receptor ([3H]Spiperone)
recorded conditions: [3H]Spiperone, CHO cell membrane fraction
Protocol: Test 1: Evaluation of binding activity for human 5-HT1A receptor, human 5-HT2A receptor, and human D2 receptor Binding affinity of the present compound for human 5-HT1A receptor, human 5-HT2A receptor, and human D2 receptor was measured by the following procedures. Each mixture was incubated at room temperature for 60 minutes. […] Radioactivity remaining on the filter was measured with a liquid scintillation counter (PerkinElmer, Inc.). Binding inhibition rate was calculated from the following formula. […]
Reported Ki is given for each of the following compounds.
measured parameter: Ki (nM)

- Cc1nc2c(o1)CCN(CCN1CCN(c3noc4ccccc34)CC1)C2=O: 1860
- O=c1c2ncccc2ccn1CCN1CCN(c2nsc3cc(F)ccc23)CC1: 311
